# Test system: NCI-H2342
# Assay: relative viability (nuclei count vs DMSO), 5 days (fraction); higher = more cells survive
# Condition: first compound 0.4 µM
Quantity name: relative viability

{"columns": ["Compound", "Test target", "Quantity name", "Experimental value"],
 "data": [
  ["Cc1sc2c(c1C)C(c1ccc(Cl)cc1)=N[C@@H](CC(=O)OC(C)(C)C)c1nnc(C)n1-2 [JQ1] + CCNC(=O)c1noc(-c2cc(C(C)C)c(O)cc2O)c1-c1ccc(CN2CCOCC2)cc1 [Luminespib] (partner 0.01 µM)", "NCI-H2342", "relative viability", 0.8],
  ["Cc1sc2c(c1C)C(c1ccc(Cl)cc1)=N[C@@H](CC(=O)OC(C)(C)C)c1nnc(C)n1-2 [JQ1] + CC(=O)Nc1cccc(-n2c(=O)n(C3CC3)c(=O)c3c(Nc4ccc(I)cc4F)n(C)c(=O)c(C)c32)c1 [Trametinib] (partner 0.02 µM)", "NCI-H2342", "relative viability", 0.905],
  ["Cc1sc2c(c1C)C(c1ccc(Cl)cc1)=N[C@@H](CC(=O)OC(C)(C)C)c1nnc(C)n1-2 [JQ1] + N=C(N)NC(=N)NCCc1ccccc1 [Phenformin] (partner 250 µM)", "NCI-H2342", "relative viability", 0.694],
  ["Cc1sc2c(c1C)C(c1ccc(Cl)cc1)=N[C@@H](CC(=O)OC(C)(C)C)c1nnc(C)n1-2 [JQ1] + NC(=O)Nc1cc(-c2cccc(F)c2)sc1C(=O)N[C@H]1CCCNC1 [AZD7762] (partner 0.2 µM)", "NCI-H2342", "relative viability", 0.588]
]}

* * *

# Tested on: PC-14
# Assay: relative viability (nuclei count vs DMSO), 5 days (fraction); higher = more cells survive
# Condition: first compound 0.08 µM
Recorded measurements of relative viability, one per entry

{"columns": ["Molecule", "relative viability"],
 "data": [
  ["Cc1cnc(-c2cnc(NCCNc3ccc(C#N)cn3)nc2-c2ccc(Cl)cc2Cl)[nH]1 + O=C(CCCCCCC(=O)Nc1ccccc1)NO [Vorinostat] (partner 1 µM)", 0.851],
  ["Cc1cnc(-c2cnc(NCCNc3ccc(C#N)cn3)nc2-c2ccc(Cl)cc2Cl)[nH]1 + CC1(C)CCC(c2ccc(Cl)cc2)=C(CN2CCN(c3ccc(C(=O)NS(=O)(=O)c4ccc(N[C@H](CCN5CCOCC5)CSc5ccccc5)c(S(=O)(=O)C(F)(F)F)c4)cc3)CC2)C1 [Navitoclax] (partner 0.5 µM)", 1.1],
  ["O=c1[nH]c2ccccc2n1C1CCN(CCCC(c2ccc(F)cc2)c2ccc(F)cc2)CC1 [Pimozide] + Cc1nc(NC(=O)N2CCC[C@H]2C(N)=O)sc1-c1ccnc(C(C)(C)C(F)(F)F)c1 [Alpelisib] (partner 2 µM)", 0.606]
]}

* * *

# System: NCI-H1993
# Assay: relative viability (nuclei count vs DMSO), 5 days (fraction); higher = more cells survive
# Condition: first compound 0.8 µM

{"columns": ["Compound", "relative viability"],
 "data": [
  ["Cc1cnc(-c2cnc(NCCNc3ccc(C#N)cn3)nc2-c2ccc(Cl)cc2Cl)[nH]1 + COc1cc2c(Oc3ccc(NC(=O)C4(C(=O)Nc5ccc(F)cc5)CC4)cc3F)ccnc2cc1OCCCN1CCOCC1 [Foretinib] (partner 0.25 µM)", 0.754],
  ["O=c1[nH]c2ccccc2n1C1CCN(CCCC(c2ccc(F)cc2)c2ccc(F)cc2)CC1 [Pimozide] + C[C@@H](Oc1cc(-c2cnn(C3CCNCC3)c2)cnc1N)c1c(Cl)ccc(F)c1Cl [Crizotinib] (partner 1 µM)", 0.816],
  ["Cc1cnc(-c2cnc(NCCNc3ccc(C#N)cn3)nc2-c2ccc(Cl)cc2Cl)[nH]1 + C[C@]1(O)C[C@@H](c2nc(-c3ccc4ccc(-c5ccccc5)nc4c3)c3c(N)nccn32)C1 [Linsitinib] (partner 1 µM)", 0.701],
  ["O=c1[nH]c2ccccc2n1C1CCN(CCCC(c2ccc(F)cc2)c2ccc(F)cc2)CC1 [Pimozide] + Cc1nc(Nc2ncc(C(=O)Nc3c(C)cccc3Cl)s2)cc(N2CCN(CCO)CC2)n1 [Dasatinib] (partner 0.075 µM)", 0.464],
  ["Cc1cnc(-c2cnc(NCCNc3ccc(C#N)cn3)nc2-c2ccc(Cl)cc2Cl)[nH]1 + CC1(C)CCC(c2ccc(Cl)cc2)=C(CN2CCN(c3ccc(C(=O)NS(=O)(=O)c4ccc(N[C@H](CCN5CCOCC5)CSc5ccccc5)c(S(=O)(=O)C(F)(F)F)c4)cc3)CC2)C1 [Navitoclax] (partner 0.5 µM)", 0.996],
  ["Cc1cnc(-c2cnc(NCCNc3ccc(C#N)cn3)nc2-c2ccc(Cl)cc2Cl)[nH]1 + COc1cccc2cc(-c3nc([C@H]4CC[C@H](C(=O)O)CC4)n4ncnc(N)c34)[nH]c12 [OSI-027] (partner 0.5 µM)", 0.536],
  ["O=c1[nH]c2ccccc2n1C1CCN(CCCC(c2ccc(F)cc2)c2ccc(F)cc2)CC1 [Pimozide] + CS(=O)(=O)CCNCc1ccc(-c2ccc3ncnc(Nc4ccc(OCc5cccc(F)c5)c(Cl)c4)c3c2)o1 [Lapatinib] (partner 2 µM)", 0.697],
  ["Cc1cnc(-c2cnc(NCCNc3ccc(C#N)cn3)nc2-c2ccc(Cl)cc2Cl)[nH]1 + Cc1nc(NC(=O)N2CCC[C@H]2C(N)=O)sc1-c1ccnc(C(C)(C)C(F)(F)F)c1 [Alpelisib] (partner 2 µM)", 0.683]
]}
